Recorded pEC50 by entry
# studyTarget: Adenosine receptor A2b (Homo sapiens)
# Sequence (P29275 whole entry): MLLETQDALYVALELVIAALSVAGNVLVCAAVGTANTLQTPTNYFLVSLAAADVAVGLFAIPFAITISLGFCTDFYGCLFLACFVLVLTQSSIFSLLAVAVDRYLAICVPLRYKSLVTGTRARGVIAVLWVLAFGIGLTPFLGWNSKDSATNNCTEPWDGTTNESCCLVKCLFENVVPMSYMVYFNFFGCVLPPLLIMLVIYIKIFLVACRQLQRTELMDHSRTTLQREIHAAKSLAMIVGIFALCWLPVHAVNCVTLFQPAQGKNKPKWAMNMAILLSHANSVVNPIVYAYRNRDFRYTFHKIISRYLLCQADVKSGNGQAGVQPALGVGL
# methodDescription: Agonistic effect at human adenosine A2B receptor in CHO cells
pEC50: −log10 of the molar value.
experimentalReadout: pEC50

> print(dat)
                                   compound  experimentalreadout  resultvalue
1  CNC(=O)C12C[C@@H]1[C@@H](n1cnc3c(NC4CCCC4)nc(Cl)nc31)[C@H](O)[C@@H]2O (single isomer, unassigned)                pEC50       < 5.00
2  CNC(=O)C12C[C@@H]1[C@@H](n1cnc3c(NC4CCCC4)ncnc31)[C@H](O)[C@@H]2O (single isomer, unassigned)                pEC50       < 5.00
3  CNC(=O)C12C[C@@H]1[C@@H](n1cnc3c(NC4C5CCC4CC5)nc(Cl)nc31)[C@H](O)[C@@H]2O (single isomer, unassigned)                pEC50       < 5.00
